# credit: paper PMC6627609

Field: inhibition at 50 µM. Provide a value for each of the compounds that follow.
- experimental-target: UniProtKB Q8ZKQ6
- Sequence (Q8ZKQ6 whole entry): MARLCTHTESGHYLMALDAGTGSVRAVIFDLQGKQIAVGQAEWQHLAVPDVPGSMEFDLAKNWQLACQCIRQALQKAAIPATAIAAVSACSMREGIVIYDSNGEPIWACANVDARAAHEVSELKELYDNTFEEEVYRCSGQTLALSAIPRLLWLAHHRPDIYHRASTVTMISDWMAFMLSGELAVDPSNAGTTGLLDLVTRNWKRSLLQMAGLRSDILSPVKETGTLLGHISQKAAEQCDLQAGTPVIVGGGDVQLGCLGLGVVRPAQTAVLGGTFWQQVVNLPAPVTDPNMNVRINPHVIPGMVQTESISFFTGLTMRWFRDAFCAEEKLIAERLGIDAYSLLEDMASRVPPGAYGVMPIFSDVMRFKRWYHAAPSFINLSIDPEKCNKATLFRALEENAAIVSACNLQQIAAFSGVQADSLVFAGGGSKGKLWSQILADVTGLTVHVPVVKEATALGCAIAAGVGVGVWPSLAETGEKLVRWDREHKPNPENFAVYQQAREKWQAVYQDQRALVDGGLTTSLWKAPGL
- assay-info: biochemical
- Format: biochemical, S. typhimurium
Where a name gives a salt, the structure may show the parent alone.
Provide only the numeric value, understood in %.

Requested read-out inhibition at 50 µM, target or system UniProtKB Q8ZKQ6, entry CCOC(=O)[C@H](CCc1ccccc1)N[C@H]1CCc2ccccc2N(CC(=O)O)C1=O [BENAZEPRIL HYDROCHLORIDE] 0

// repeat for C1CCc2nnnn2CC1 and report 0

// repeat for Cc1c(C)c2c(c(C)c1O)CCC(C)(C(=O)O)O2 (centres unmarked) and report 0

// repeat for c1ccc(/N=N/c2ccccc2)cc1 and report 1

// repeat for CC1=C(/C=C/C(C)=C/C=C/C(C)=C/C=C/C=C(C)/C=C/C=C(C)/C=C/C2=C(C)CCCC2(C)C)C(C)(C)CCC1 and report 1

// repeat for NCC(=O)c1ccccc1 [PHENACYLAMINE HYDROCHLORIDE] and report 1

// repeat for c1ccc2[nH]c(-c3cscn3)nc2c1 and report 5

// repeat for NCCCNCCSP(=O)(O)O and report 3

// repeat for O=c1c2cc(O)c(O)cc2oc2cc(O)c([C@@H]3O[C@H](CO)[C@@H](O)[C@H](O)[C@H]3O)c(O)c12 and report 14

// repeat for CCOC(N)=O and report 0

// repeat for Nc1ncn([C@@H]2O[C@H](CO)[C@@H](O)[C@H]2O)c(=O)n1 and report 9

// repeat for CC(C)c1ccc2c(c1)CC[C@H]1[C@](C)(C(N)=O)CCC[C@]21C [DEHYDROABIETAMIDE] and report 2

// repeat for CCn1cc(C(=O)O)c(=O)c2cc3c(cc21)OCO3 and report 1

// repeat for COc1cc2ccc(=O)oc2cc1O and report 1

// repeat for CC(=O)Oc1cccc(O)c1 [RESORCINOL MONOACETATE] and report 1

// repeat for CC(C)c1cccc(C(C)C)c1O and report 7

// repeat for CCN(CC)C(=O)N1CCN(C)CC1 [DIETHYLCARBAMAZINE CITRATE] and report 1

// repeat for CN(C)c1ccc2nc3ccc(=[N+](C)C)cc-3sc2c1 and report 3

// repeat for COC(=O)[C@]1(C)CC[C@]2(C)CC[C@]3(C)C4=CC=C5C(=CC(=O)C(O)=C5C)[C@]4(C)CC[C@@]3(C)[C@@H]2C1 and report 7

// repeat for CCOP(=S)(OCC)Oc1nc(Cl)c(Cl)cc1Cl and report 0

// repeat for COc1cc(NC(C)CCCN)c2ncccc2c1 (centres unmarked) [PRIMAQUINE DIPHOSPHATE] and report 89

// repeat for NCCc1ccc(O)c(O)c1 [DOPAMINE HYDROCHLORIDE] and report 2

// repeat for CC1=CCc2c(cc3oc(C)cc(=O)c3c2O)OC1 and report 1

// repeat for Cc1ccc(C(=O)c2ccc(CC(=O)O)n2C)cc1 [TOLMETIN SODIUM] and report 1

// repeat for CCn1cc(C(=O)O)c(=O)c2cc(F)c(N3CCNCC3)nc21 and report 0

// repeat for CC[C@@]1(O)C(=O)OCc2c1cc1n(c2=O)Cc2cc3ccccc3nc2-1 and report 1

// repeat for CCC[C@@H]1C[C@@H](C(=O)N[C@@H]([C@H]2O[C@H](SC)[C@H](O)[C@@H](O)[C@H]2O)[C@H](C)Cl)N(C)C1 [CLINDAMYCIN HYDROCHLORIDE] and report 0

// repeat for Clc1ccc(C(Cn2ccnc2)OCc2ccsc2Cl)c(Cl)c1 (centres unmarked) and report 2

// repeat for O=C1c2cccc(O)c2C(=O)c2c(O)cccc21 and report 1

// repeat for NCCCNCCCCNCCCN and report 2

// repeat for CC(C)NCC(O)COc1ccc(COCCOC(C)C)cc1 (centres unmarked) [BISOPROLOL FUMARATE] and report 0

// repeat for C[C@]12CC[C@H]3[C@@H](CC[C@]4(O)C[C@@H](O)CC[C@]34C=O)[C@@]1(O)CC[C@@H]2C1=CC(=O)OC1 and report 0

// repeat for OC(c1cc(C(F)(F)F)nc2c(C(F)(F)F)cccc12)C1CCCCN1 (centres unmarked) and report 32

// repeat for CC(CN(C)C)CN1c2ccccc2CCc2ccccc21 (centres unmarked) [TRIMIPRAMINE MALEATE] and report 111

// repeat for CN(C)CCc1c[nH]c2ccc(Cn3cncn3)cc12 [RIZATRIPTAN BENZOATE] and report 1

// repeat for CC(C)=CCC/C(C)=C\CO and report 1

// repeat for CC1(C)C(=O)C=C[C@]2(C)[C@H]3CC[C@@]4(C)[C@H](c5ccoc5)OC(=O)[C@H]5O[C@]54[C@]3(C)[C@H](O)C[C@@H]12 and report 1

// repeat for Nc1ccc(C(=O)NCC(=O)O)cc1 and report 1
